# Tested on: AGS cells (KRAS G12D)
# experiment.summary: Cell viability assay, G12D
# Format: cell-based, human
# test.conditions: Homo sapiens, 72 hrs, Cell Counting Kit-8
Each record here notes measured IC50.
property: IC50 (µM)

- compound: "CO[C@@H](C)c1ncc(N2CCN(C)CC2)cc1-c1c2c3c(F)c(ccc3n1CC(F)(F)F)-c1csc(n1)C[C@H](NC(=O)[C@H](C(C)C)N(C)C(=O)[C@H]1C[C@@H](C#CC(F)(F)F)C1)C(=O)N1CCC[C@H](N1)C(=O)OCC(C)(C)C2 (atropisomer, axis not shown; (M))"
  reported.relation: "="
  reported: 3.1
- compound: "CCn1c(-c2cc(N3CCOCC3)cnc2[C@H](C)OC)c2c3cc(c(F)cc31)-c1csc(n1)C[C@H](NC(=O)[C@H](C(C)C)N(C)C(=O)[C@H]1C[C@@H](C#CC(F)(F)F)C1)C(=O)N1CCC[C@H](N1)C(=O)OCC(C)(C)C2 (atropisomer, axis not shown; (M))"
  reported.relation: ">"
  reported: 10

###

Each record here notes measured IC50.
# System: AGS cells (KRAS G12D)
# experiment.summary: Cell viability assay, G12D
# Assay type: cell-based, human
# test.conditions: Homo sapiens, 72 hrs, Cell Counting Kit-8

- molecule: "CO[C@@H](C)c1ncc(N2CCN(C)CC2)cc1-c1c2c3cc(c(F)cc3n1CC(F)(F)F)-c1csc(n1)C[C@H](NC(=O)[C@H](C(C)C)N(C)C(=O)[C@H]1CC[C@H](C#CC(F)(F)F)CC1)C(=O)N1CCC[C@H](N1)C(=O)OCC(C)(C)C2 (atropisomer, axis not shown; (M))"
  IC50: "> 5 µM"
- molecule: "CCn1c(-c2cc(N3CCOCC3)cnc2[C@H](C)OC)c2c3cc(c(F)cc31)-c1csc(n1)C[C@H](NC(=O)[C@H](C(C)C)N(C)C(=O)N1CC(C#CC(F)(F)F)C1)C(=O)N1CCCC(N1)C(=O)OCC(C)(C)C2 (stereo partly shown)"
  IC50: "> 10 µM"
- molecule: "CO[C@@H](C)c1ncc(N2CCN(CC(F)(F)F)CC2)cc1-c1c2c3cc(c(F)cc3n1CC(F)(F)F)-c1csc(n1)C[C@H](NC(=O)[C@H](C(C)C)N(C)C(=O)[C@H]1C[C@@H](C#CC(F)(F)F)C1)C(=O)N1CCC[C@H](N1)C(=O)OCC(C)(C)C2 (atropisomer, axis not shown; (M))"
  IC50: "> 5 µM"
- molecule: "CCn1c(-c2cc(N3CCN(C)CC3)cnc2[C@H](C)OC)c2c3cc(c(F)cc31)-c1csc(n1)C[C@H](NC(=O)[C@H](C(C)C)N(C)C(=O)[C@H]1C[C@@H](C#CC(F)(F)F)C1)C(=O)N1CCC[C@H](N1)C(=O)OCC(C)(C)C2 (atropisomer, axis not shown; (M))"
  IC50: "2.84 µM"

###

# assayed.system: KRAS G12C-BRAF complex (Homo sapiens, UniProt P01116+P62937, G12C)
# Construct: expressed in transfected cells
# Sequence (P01116 1-188 isoform P01116-2 G12C): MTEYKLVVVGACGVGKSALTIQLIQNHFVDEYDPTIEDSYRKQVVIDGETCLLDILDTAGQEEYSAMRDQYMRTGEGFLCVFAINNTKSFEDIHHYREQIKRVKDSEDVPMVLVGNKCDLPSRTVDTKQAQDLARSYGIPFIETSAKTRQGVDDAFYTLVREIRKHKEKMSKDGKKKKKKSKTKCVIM
# Sequence (P62937 whole entry): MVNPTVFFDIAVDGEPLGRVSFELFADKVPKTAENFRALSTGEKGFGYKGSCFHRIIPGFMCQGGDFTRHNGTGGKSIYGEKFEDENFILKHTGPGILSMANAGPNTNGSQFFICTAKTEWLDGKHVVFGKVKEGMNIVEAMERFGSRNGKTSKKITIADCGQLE
# experiment.summary: KRAS G12C-BRAF NanoBit assay in HEK293 cells
# Type: cell-based
# test.conditions: HEK293 stable cell pool, 3 hours of incubation
property: IC50 (µM)

- molecule: "CO[C@@H](C)c1ncc(N2CCN(C)CC2)cc1-c1c2c3cc(c(F)cc3n1CC(F)(F)F)-c1csc(n1)C[C@H](NC(=O)[C@H](C(C)C)N(C)C(=O)[C@H]1C[C@@H](C#Cc3ncc(C(F)(F)F)cn3)C1)C(=O)N1CCC[C@H](N1)C(=O)OCC(C)(C)C2 (atropisomer, axis not shown; (M))"
  unit.abbreviation: "µM"
  reported: 0.22
- molecule: "CCn1c(-c2cc(N3CCOCC3)cnc2[C@H](C)OC)c2c3cc(c(F)cc31)-c1csc(n1)C[C@H](NC(=O)[C@H](C(C)C)N(C)C(=O)[C@H]1C[C@@H](C#CC(F)(F)F)C1)C(=O)N1CCC[C@H](N1)C(=O)OCC(C)(C)C2 (atropisomer, axis not shown; (M))"
  unit.abbreviation: "µM"
  reported: 0.012
- molecule: "CO[C@@H](C)c1ncc(N2CCN(C)CC2)cc1-c1c2c3cc(c(F)cc3n1CC(F)(F)F)-c1csc(n1)C[C@H](NC(=O)[C@H](C(C)C)N(C)C(=O)c1ccc(C#CC(F)(F)F)cc1)C(=O)N1CCC[C@H](N1)C(=O)OCC(C)(C)C2 (atropisomer, axis not shown; (M))"
  unit.abbreviation: "µM"
  reported: 0.219
- molecule: "CC#CC(=O)N1CC[C@H](C(=O)N(C)[C@H](C(=O)N[C@H]2Cc3nc(cs3)-c3ccc4c(c3)c(c(-c3cccnc3[C@H](C)OC)n4CC)CC(C)(C)COC(=O)[C@@H]3CCCN(N3)C2=O)C(C)C)C1 [Example A168, reference compound]"
  unit.abbreviation: "µM"
  reported: 0.205
